Test target: T1, FOXM1B DBD WT (GST fusion) (UniProt Q08050-2 235-327)
T1 sequence: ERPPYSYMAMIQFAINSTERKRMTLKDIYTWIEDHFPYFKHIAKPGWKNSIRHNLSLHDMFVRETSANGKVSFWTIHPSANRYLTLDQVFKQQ
Assay summary: EMSA; FP: 50 mM Tris-HCl pH 7.5, 5 mM MgCl2, 1 mM DTT, 2% glycerol; protein 80 nM-5 uM; temperature not stated
Test parameters: protein: recombinant; tags: GST; label: 5' 6FAM on top strand; blunt
Readout: Kd (nM)

binder="FKH consensus 16-mer (dsDNA) DNA 1: AAACAAACAAACAATC DNA 2: GATTGTTTGTTTGTTT" readout=Kd experimental_value=346
